# TARGET: F508delCFTR (Homo sapiens, UniProt P13569, DEL508-508)
# Construct: expressed in transfected cells; host or cells: CFBE41o- human lung derived epithelial cells (CFBE41o-F508delCFTR-HRP), doxycycline-inducible
# Sequence (P13569 with tags, fused parts or gaps DEL508-508): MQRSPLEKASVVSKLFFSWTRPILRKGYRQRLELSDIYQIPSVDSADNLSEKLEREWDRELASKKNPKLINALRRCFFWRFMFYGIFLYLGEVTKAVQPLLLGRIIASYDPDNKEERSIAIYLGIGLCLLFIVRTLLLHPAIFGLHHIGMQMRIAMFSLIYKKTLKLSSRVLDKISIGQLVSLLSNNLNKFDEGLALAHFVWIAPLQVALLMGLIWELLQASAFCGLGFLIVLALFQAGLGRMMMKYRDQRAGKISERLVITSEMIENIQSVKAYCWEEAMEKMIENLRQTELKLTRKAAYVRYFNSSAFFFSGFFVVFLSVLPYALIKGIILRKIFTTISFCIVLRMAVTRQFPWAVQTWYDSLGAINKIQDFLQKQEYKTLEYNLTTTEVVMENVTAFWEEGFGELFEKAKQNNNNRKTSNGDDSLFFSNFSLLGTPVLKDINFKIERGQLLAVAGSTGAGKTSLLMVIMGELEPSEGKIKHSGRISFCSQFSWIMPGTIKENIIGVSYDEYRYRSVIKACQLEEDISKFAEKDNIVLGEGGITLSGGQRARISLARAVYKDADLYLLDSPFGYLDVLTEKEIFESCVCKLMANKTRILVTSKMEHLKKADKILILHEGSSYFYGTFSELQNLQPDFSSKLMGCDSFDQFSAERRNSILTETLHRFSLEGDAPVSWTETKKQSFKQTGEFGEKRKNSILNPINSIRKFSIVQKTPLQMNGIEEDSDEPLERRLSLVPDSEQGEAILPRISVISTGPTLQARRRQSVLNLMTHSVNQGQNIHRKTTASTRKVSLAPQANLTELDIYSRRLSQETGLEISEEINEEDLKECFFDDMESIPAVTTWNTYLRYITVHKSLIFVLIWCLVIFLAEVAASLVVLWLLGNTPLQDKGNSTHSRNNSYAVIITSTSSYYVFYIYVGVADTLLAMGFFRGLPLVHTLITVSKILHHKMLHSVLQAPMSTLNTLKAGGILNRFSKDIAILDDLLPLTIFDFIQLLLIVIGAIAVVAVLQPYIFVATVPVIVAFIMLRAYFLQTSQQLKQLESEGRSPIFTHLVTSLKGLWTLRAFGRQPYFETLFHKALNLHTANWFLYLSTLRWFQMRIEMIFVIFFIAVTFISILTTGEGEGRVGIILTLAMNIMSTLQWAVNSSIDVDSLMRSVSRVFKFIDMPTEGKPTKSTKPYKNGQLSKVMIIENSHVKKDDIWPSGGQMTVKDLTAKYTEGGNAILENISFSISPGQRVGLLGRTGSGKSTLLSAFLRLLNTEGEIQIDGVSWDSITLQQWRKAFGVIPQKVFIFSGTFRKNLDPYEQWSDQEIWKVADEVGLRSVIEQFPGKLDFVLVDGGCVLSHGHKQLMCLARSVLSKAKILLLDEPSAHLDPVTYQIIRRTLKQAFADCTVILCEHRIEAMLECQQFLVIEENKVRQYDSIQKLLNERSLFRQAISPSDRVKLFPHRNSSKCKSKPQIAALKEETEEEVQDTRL
# ASSAY EXPLANATION: Cell Surface Expression-Horse Radish Peroxidase (CSE-HRP) Assay;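 for EC50 (with co-corrector): co-corrector chromenyl benzoic acid corrector at 2 or 3 µM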
# Format: cell-based
# TEST CONTEXT: with co-corrector; read-out: EC50 (with co-corrector)
TEST READOUT: EC50

{"COMPOUND": "O=C(NS(=O)(=O)c1ccccc1)C1(c2ccccc2Cl)CC1 [Example III-32]", "EC50": "3 to 10 µM"}
{"COMPOUND": "Cc1ccc2c(S(=O)(=O)NC(=O)C3(c4cc(C(F)(F)F)cnc4N(C)C)CC3)cccc2n1 [Example I-72]", "EC50": "< 3 µM"}
{"COMPOUND": "CCc1ccc(O[C@H](C)COC)c(C2(C(=O)NS(=O)(=O)c3cccc4ncccc34)CC2)c1 [Example I-111]", "EC50": "< 3 µM"}

Kindly consider the entry below.
Q. Using the record for COc1ccc(C)c(OC)c1C1(C(=O)NS(=O)(=O)c2cccc3ncccc23)CC1 [Example I-41] , report its EC50.
A. < 3 µM

---

# TARGET: F508delCFTR (Homo sapiens, UniProt P13569, DEL508-508)
# Construct: expressed in transfected cells; host or cells: CFBE41o- human lung derived epithelial cells (CFBE41o-F508delCFTR-HRP), doxycycline-inducible
# ASSAY EXPLANATION: Cell Surface Expression-Horse Radish Peroxidase (CSE-HRP) Assay;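 for EC50 (with co-corrector): co-corrector chromenyl benzoic acid corrector at 2 or 3 µM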
# Type: cell-based
# TEST CONTEXT: with co-corrector; read-out: EC50 (with co-corrector)
pEC50: −log10 of the molar value.
TEST READOUT: pEC50

Reference set, count: 3
{"ENTRY SMILES": "CC(C)Oc1ncc(Br)cc1C1(C(=O)NS(=O)(=O)c2cccc3ncccc23)CC1", "pEC50": "> 5.52"}
{"ENTRY SMILES": "O=C(NS(=O)(=O)Cc1ccccc1)C1(c2ccc(Cl)c(Cl)c2)CC1", "pEC50": "< 5.00"}
{"ENTRY SMILES": "Cc1ccc(C)c(C2(C(=O)NS(=O)(=O)c3cccc4ncccc34)CC2)c1", "pEC50": "> 5.52"}

Q. Using the record for COc1ccc(C(C)(C)C)cc1C1(C(=O)NS(=O)(=O)c2cccc3ncccc23)CC1 , report its pEC50.
A. > 5.52

Q. Another molecule: COc1ccc(OC)c(C2(C(=O)NS(=O)(=O)c3cccc4ccccc34)CC2)c1
A. > 5.52

Q. Another molecule: COc1ncc(C2CCC2)cc1C1(C(=O)NS(=O)(=O)c2cccc3[nH]ncc23)CC1
A. > 5.52

Q. Another molecule: COC(=O)c1ccc(OC)c(C2(C(=O)NS(=O)(=O)c3cccc4ccccc34)CC2)c1
A. > 5.52

Q. Another molecule: Cc1ccc(OC(C)C)c(C2(C(=O)NS(=O)(=O)c3cccc4[nH]ncc34)CC2)c1
A. > 5.52

Q. Another molecule: COc1ccc(C2COC2)cc1C1(C(=O)NS(=O)(=O)c2cccc3ncccc23)CC1
A. 5.00 to 5.52

Q. Another molecule: Cc1ccc2c(S(=O)(=O)NC(=O)C3(c4cc(C5CCC5)ncc4OC(C)C)CC3)cccc2n1
A. > 5.52

---

# TARGET: F508delCFTR (Homo sapiens, UniProt P13569, DEL508-508)
# Construct: expressed in transfected cells; host or cells: CFBE41o- human lung derived epithelial cells (CFBE41o-F508delCFTR-HRP), doxycycline-inducible
# ASSAY EXPLANATION: Cell Surface Expression-Horse Radish Peroxidase (CSE-HRP) Assay
# Format: cell-based
# TEST CONTEXT: test compound with co-corrector; maximum at any tested concentration
TEST READOUT: Maximum % activity (with co-corrector)

Reference set, count: 4
{"ENTRY SMILES": "COc1cc(OC(C)C)c(C2(C(=O)NS(=O)(=O)c3cccc4c3CCCN4)CC2)cn1", "TARGET": "F508delCFTR (Homo sapiens, UniProt P13569, DEL508-508)", "Maximum % activity (with co-corrector)": "++ (≥150 and <350)"}
{"ENTRY SMILES": "Cc1ccc(C2(C(=O)NS(=O)(=O)c3cccc4nc(C)ccc34)CC2)c(OC(C)C)n1", "TARGET": "F508delCFTR (Homo sapiens, UniProt P13569, DEL508-508)", "Maximum % activity (with co-corrector)": "+++ (≥350)"}
{"ENTRY SMILES": "COc1cc(C2(C(=O)NS(=O)(=O)c3cccc4c3CCCN4)CC2)c(Cl)cn1", "TARGET": "F508delCFTR (Homo sapiens, UniProt P13569, DEL508-508)", "Maximum % activity (with co-corrector)": "+++ (≥350)"}
{"ENTRY SMILES": "COc1nc(N)ccc1C1(C(=O)NS(=O)(=O)c2cccc3ncccc23)CC1", "TARGET": "F508delCFTR (Homo sapiens, UniProt P13569, DEL508-508)", "Maximum % activity (with co-corrector)": "+ (<150)"}

Q. Using the record for CC(C)Oc1ncccc1C1(C(=O)NS(=O)(=O)c2cccc3c2CCCN3)CC1 , report its Maximum % activity (with co-corrector).
A. ++ (≥150 and <350)

Q. Another compound: CC(C)Oc1ncccc1C1(C(=O)NS(=O)(=O)c2cccc3ncccc23)CC1
A. ++ (≥150 and <350)

Q. Another compound: O=C(NS(=O)(=O)c1cccc2ncccc12)C1(c2cc(C3CCC3)cnc2OCC2CC2)CC1
A. +++ (≥350)

Q. Another compound: O=C(NS(=O)(=O)c1cccc2ncccc12)C1(c2cc(Cl)cnc2F)CC1
A. + (<150)

Q. Another compound: COc1cc(C2(C(=O)NS(=O)(=O)c3cccc4[nH]ccc34)CC2)c(OCC2CC2)cn1
A. +++ (≥350)

Q. Another compound: CCc1cnc(N2CCC(OC(C)C)CC2)c(C2(C(=O)NS(=O)(=O)c3cccc4ncccc34)CC2)c1
A. +++ (≥350)

Q. Another compound: Cc1ccc2c(S(=O)(=O)NC(=O)C3(c4cc(N5CCCC5)cnc4OCC(C)C)CC3)cccc2n1
A. +++ (≥350)

Q. Another compound: COc1cnc(OC(C)C)c(C2(C(=O)NS(=O)(=O)c3cccc4ncccc34)CC2)c1
A. +++ (≥350)

Q. Another compound: Cc1ccc2c(S(=O)(=O)NC(=O)C3(c4cccnc4N4CCCC4)CC3)cccc2n1
A. ++ (≥150 and <350)

---

# TARGET: F508delCFTR (Homo sapiens, UniProt P13569, DEL508-508)
# Construct: expressed in transfected cells; host or cells: CFBE41o- human lung derived epithelial cells (CFBE41o-F508delCFTR-HRP), doxycycline-inducible
# ASSAY EXPLANATION: Cell Surface Expression-Horse Radish Peroxidase (CSE-HRP) Assay
# Type: cell-based
# TEST CONTEXT: test compound alone, without co-corrector; read-out: EC50 (without co-corrector)
pEC50: −log10 of the molar value.
Recorded pEC50 values for a group of molecules are listed next.

Reference set, count: 5
{"MOLECULE": "COc1ccc2c(S(=O)(=O)NC(=O)C3(c4cc(C5CC5)cnc4OCC(C)C)CC3)cccc2n1 [II-93]", "pEC50": "> 5.52"}
{"MOLECULE": "COc1ccc(C)c(C2(C(=O)NS(=O)(=O)c3cccc4ncccc34)CCN(C)CC2)c1 [Example III-94]", "pEC50": "< 5.00"}
{"MOLECULE": "Cc1ccc(OC2COC2)c(C2(C(=O)NS(=O)(=O)c3cccc4nc(C)ccc34)CC2)c1 [Example I-106]", "pEC50": "5.00 to 5.52"}
{"MOLECULE": "COc1ccc(OC2CCC2)cc1C1(C(=O)NS(=O)(=O)c2cccc3ncccc23)CC1 [Example I-32]", "pEC50": "> 5.52"}
{"MOLECULE": "COc1cccc(OC)c1C1(C(=O)NS(=O)(=O)c2cccc3ccccc23)CC1 [Example I-7]", "pEC50": "5.00 to 5.52"}

Q. Hi! What's the reported pEC50 for COc1ccc(Br)cc1C1(C(=O)NS(=O)(=O)c2cccc3c2CCCN3)CC1 [Example I-11] on F508delCFTR (Homo sapiens, UniProt P13569, DEL508-508)?
A. > 5.52

Q. Another molecule: COc1cccc(C(C)C)c1C1(C(=O)NS(=O)(=O)c2cccc3ncccc23)CC1 [Example I-50]
A. > 5.52

Q. Another molecule: COc1ncc(C(F)(F)F)cc1C1(C(=O)NS(=O)(=O)c2cccc3[nH]ccc23)CC1 [Example I-22]
A. 5.00 to 5.52

---

# TARGET: F508delCFTR (Homo sapiens, UniProt P13569, DEL508-508)
# Construct: expressed in transfected cells; host or cells: CFBE41o- human lung derived epithelial cells (CFBE41o-F508delCFTR-HRP), doxycycline-inducible
# ASSAY EXPLANATION: Cell Surface Expression-Horse Radish Peroxidase (CSE-HRP) Assay;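 for EC50 (with co-corrector): co-corrector chromenyl benzoic acid corrector at 2 or 3 µM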
# Type: cell-based
# TEST CONTEXT: with co-corrector; read-out: EC50 (with co-corrector)
pEC50: −log10 of the molar value.
TEST READOUT: pEC50

Reference set, count: 2
{"ENTRY SMILES": "CCOc1ccc(C(C)(C)OC)cc1C1(C(=O)NS(=O)(=O)c2cccc3nc(C)ccc23)CC1", "TARGET": "F508delCFTR (Homo sapiens, UniProt P13569, DEL508-508)", "pEC50": "> 5.52"}
{"ENTRY SMILES": "CCOc1ccc(C)cc1C1(C(=O)NS(=O)(=O)c2cccc3ncccc23)CC1", "TARGET": "F508delCFTR (Homo sapiens, UniProt P13569, DEL508-508)", "pEC50": "> 5.52"}

Q. Hi! What's the reported pEC50 for O=C(CCc1ccccc1)N1CCC(S(=O)(=O)NC(=O)C2(c3ccc(Cl)cc3Cl)CC2)CC1 on F508delCFTR (Homo sapiens, UniProt P13569, DEL508-508)?
A. 5.00 to 5.52

Q. Another molecule: COc1ncc(C(F)(F)F)cc1C1(C(=O)NS(=O)(=O)c2cccc3cnn(C)c23)CC1
A. 5.00 to 5.52
